Measured values drawn from patent US20240116910A1 for this set.

tested_target: recombinant His-tag Wip1(2-420) protein (amino acids #2-420) (Homo sapiens (Human))
Sequence (O15297 2-420): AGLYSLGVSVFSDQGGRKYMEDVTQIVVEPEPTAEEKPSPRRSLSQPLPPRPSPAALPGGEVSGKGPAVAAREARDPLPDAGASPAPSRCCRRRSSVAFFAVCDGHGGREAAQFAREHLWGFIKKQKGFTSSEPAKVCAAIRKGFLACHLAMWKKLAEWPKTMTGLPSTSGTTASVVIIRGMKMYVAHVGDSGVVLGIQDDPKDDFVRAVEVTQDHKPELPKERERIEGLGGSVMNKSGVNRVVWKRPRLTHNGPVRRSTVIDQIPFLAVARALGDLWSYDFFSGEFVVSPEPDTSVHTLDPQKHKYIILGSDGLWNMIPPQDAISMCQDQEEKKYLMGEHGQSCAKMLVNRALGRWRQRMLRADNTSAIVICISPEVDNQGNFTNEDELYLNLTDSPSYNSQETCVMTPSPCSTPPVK
assay: Wip1(2-420) phosphatase enzyme FDP assay
particulars: fluorescein diphosphate (FDP) substrate, RT 2 hours, fluorescence Ex485/Em535; read-out: WIP1 (Truncated 2-420) FDP Assay: IC50
Output Yes for records whose IC50 is lower than 20 nM, No for records at or above 20 nM.

1. CC(Nc1cc(Cl)cnc1C(N)=O)c1ccc(C(=O)N[C@@H](CC2CCCC2)C(=O)NC23CC(C2)C3)s1 (some centres unmarked): Yes
2. Cc1ncc(Cl)cc1N[C@@H](C)c1ccc(C(=O)N[C@@H](CC2CCCCC2)C(=O)NC23CC(C2)C3)s1: Yes
3. Cc1ncc(Cl)cc1N[C@@H](C)c1ccc(C(=O)N[C@H](CC2CCCC2)C(=O)Nc2ccnc(O)c2)s1: No
4. Cc1ncc(Cl)cc1N[C@@H](C)c1ccc(C(=O)N[C@@H](C[C@H]2CCC3C[C@@H]32)C(=O)NC2CC2)s1 (some centres unmarked): Yes
5. Cc1ncc(Cl)cc1N[C@@H](C)c1ccc(C(=O)N[C@@H](CC2CCCC2)C(=O)Nc2cnn(CCN(C)C)c2)s1: Yes
6. CC[C@@H](Nc1cc(Cl)cnc1C)c1ccc(C(=O)N[C@@H](CC2CCCC2)C(=O)N[C@@H]2CC2(F)F)s1: No
7. Cc1ncc(Cl)cc1NC(C)(C)c1ccc(C(=O)N[C@@H](CC2CCCC2)C(=O)NC2CC2)s1: No
8. Cc1ncc(Cl)cc1N[C@@H](C)c1ccc(C(=O)N[C@@H](CC2CCC3CC32)C(=O)NC2CC2)s1 (some centres unmarked) [Compound 92]: Yes
9. COc1cccc(-c2ncc(Cl)cc2N[C@H](C)c2ccc(C(=O)N[C@@H](CC3CCCC3)C(=O)NC3CC3)s2)c1: No
10. COCCOCCNC(=O)[C@H](CC1CCCC1)NC(=O)c1ccc([C@H](C)Nc2cc(Cl)cnc2C)s1: No
11. Cc1ncc(Cl)cc1N[C@@H](C)c1ccc(C(=O)N[C@@H](CC2CCCC2)C(=O)N[C@H]2C[C@H](C(=O)O)C2)s1: Yes
12. Cc1cc(NC(=O)[C@@H](CCC(C)(C)C)NC(=O)c2ccc([C@H](C)Nc3cc(Cl)cnc3C)s2)ccn1: No
13. Cc1ncc(Cl)cc1N[C@@H](C)c1ccc(C(=O)N[C@@H](CC2CCCC2)C(=O)N[C@@H]2CC2(F)F)s1: Yes

----------
tested_target: recombinant His-tag Wip1(2-420) protein (amino acids #2-420) (Homo sapiens (Human))
assay: Wip1(2-420) phosphatase enzyme FDP assay
particulars: fluorescein diphosphate (FDP) substrate, RT 2 hours, fluorescence Ex485/Em535; read-out: WIP1 (Truncated 2-420) FDP Assay: IC50
measurement_type: IC50 (nM)

1) COC(=O)C12CC(NC(=O)[C@H](CC3CCCC3)NC(=O)c3ccc([C@H](C)Nc4cc(Cl)cnc4C)s3)(C1)C2: 11
2) Cc1ncc(Cl)cc1N[C@@H](C)c1ccc(C(=O)N[C@@H](C[C@@H]2CCC3CC32)C(=O)NC23CC(C2)C3)s1 (stereo partly shown): 10
3) Cc1ncc(Cl)cc1N[C@@H](C)c1ccc(C(=O)N[C@@H](CC2CCCCC2)C(=O)NC2CC2)s1: 4
4) Cc1ncc(Cl)cc1N[C@@H](C)c1ccc(C(=O)N[C@@H](CC2CCCC2)C(=O)NC2CCC(O)C2)s1 (stereo partly shown): 13
5) C[C@@H](Nc1cc(Cl)nc2ccnn12)c1ccc(C(=O)N[C@@H](CC2CCCC2)C(=O)NC2CC2)s1: 13
6) COc1cc(NC(=O)[C@H](CC2CCCC2)NC(=O)c2ccc([C@H](C)Nc3cc(Cl)cnc3C)s2)ccn1: 4
7) C[C@@H](Nc1cc(Cl)cnc1C1CC1)c1ccc(C(=O)N[C@@H](CC2CCCC2)C(=O)NC2CC2)s1: 127

----------
Catalogue of compounds with associated log10(IC50)
tested_target: recombinant His-tag Wip1(2-420) protein (amino acids #2-420) (Homo sapiens (Human))
assay: Wip1(2-420) phosphatase enzyme FDP assay
particulars: fluorescein diphosphate (FDP) substrate, RT 2 hours, fluorescence Ex485/Em535; read-out: WIP1 (Truncated 2-420) FDP Assay: IC50
Source text: The Human Wip1 (2-420, aa 2-420) or Wip1 full length (aa 1-605) DNA sequence was codon optimized and synthesized by Genscript for insect cell expression. The open reading frame of Wip1(2-420) with a N-terminal-His6 affinity tag followed by a TEV cleavage site was subcloned sites into the pFastBac1 expression vector. The recombinant bacmid DNA was transfected in Sf9 insect cells for baculovirus production. […]
measurement_type: log10(IC50) (log10 of the value in nM)

1) Cc1ncc(Cl)cc1N[C@H](Cc1ccccc1)c1ccc(C(=O)N[C@@H](CC2CCCC2)C(=O)NC23CC(C#N)(C2)C3)s1: 2.22
2) CC(Nc1cc(Cl)cnc1C(N)=O)c1ccc(C(=O)N[C@@H](CC2CC3CC3C2)C(=O)Nc2cnn(C)c2)s1 (stereo partly shown): 1.18
3) COc1ncc(Cl)cc1N[C@@H](C)c1ccc(C(=O)N[C@@H](CC2CCCC2)C(=O)NC23CC(C#N)(C2)C3)s1: 1.11
4) COC(=O)c1ncc(Cl)cc1N[C@H](C)c1ccc(C(=O)N[C@@H](CC2CCCC2)C(=O)NC2CC2)s1: 2.72
5) Cc1ccc(NC(=O)[C@H](CC2CCCC2)NC(=O)c2ccc([C@H](C)Nc3cc(Cl)cnc3C)s2)cn1: 0.70
6) Cc1ncc(Cl)cc1N[C@@H](C)c1ccc(C(=O)N[C@@H](CC2CCCC2)C(=O)Nc2cnn(C3COC3)c2)s1: 0.78
7) CC[C@@H](Nc1cc(Cl)cnc1C)c1ccc(C(=O)N[C@@H](CC2CCCC2)C(=O)NC23CC(C2)C3)s1: 2.43
8) COCCOc1ccc(NC(=O)[C@H](CC2CCCC2)NC(=O)c2ccc([C@H](C)Nc3cc(Cl)cnc3C)s2)cc1: 0.70
9) CCNC(=O)[C@H](CC1CCCCC1)NC(=O)c1ccc([C@H](C)Nc2cc(Cl)cnc2C)s1: 0.85
10) Cc1ncc(Cl)cc1N[C@@H](C)c1ccc(C(=O)N[C@@H](CC2CCCC2)C(=O)NC(C)(C)C#N)s1: 0.90
11) Cc1ncc(Cl)cc1N[C@@H](C)c1ccc(C(=O)N[C@@H](CCC(C)C)C(=O)NC2CC2)s1: 1.43
12) Cc1cc(NC(=O)[C@H](CCC(C)(C)C)NC(=O)c2ccc([C@H](C)Nc3cc(Cl)cnc3C)s2)ccn1: 0.95
13) COc1ncc(Cl)cc1N[C@H](C)c1ccc(C(=O)N[C@@H](CC2CCCC2)C(=O)NC23CC(C2)C3)s1: 2.70
14) O=C(N[C@@H](CC1CCCCC1)C(=O)NC1CCOCC1)c1cnc(CNc2ccnc(C(F)(F)F)c2)s1: 1.95
15) C[C@@H](c1ccc(C(=O)N[C@@H](CC2CCCC2)C(=O)NC2CC2)s1)N1CCCc2ccc(Cl)cc21: 1.20
16) Cc1ncc(Cl)cc1N[C@@H](C)c1ccc(C(=O)N[C@@H](CC2CCCCC2)C(=O)Nc2ccc(F)cc2)s1: 0.60
17) Cc1ncc(Cl)cc1N[C@@H](C)c1ccc(C(=O)N[C@@H](CC2CC3CC3C2)C(=O)Nc2cnn(C)c2)s1 (stereo partly shown): 0.60
18) Cc1ncc(Cl)cc1N[C@@H](C)c1ccc(C(=O)N[C@@H](CC2CCCC2)C(=O)NCC(=O)O)s1: 2.32
19) Cc1ncc(Cl)cc1N[C@@H](C)c1ccc(C(=O)N[C@@H](CC2CCC3CC32)C(=O)NC2CC2)s1 (stereo in doubt) [Compound 273]: 0.85
20) Cc1ncc(Cl)cc1N[C@H](C)c1ccc(C(=O)N[C@@H](CC2CCCC2)C(=O)NC2CC2)s1: 2.61
21) Cc1ncc(Cl)cc1N[C@@H](C)c1ccc(C(=O)N[C@@H](CC2CCCC2)C(=O)Nc2cc(N)ccn2)s1: 0.90
22) C[C@H](Nc1cc(Cl)nc2ccnn12)c1ccc(C(=O)N[C@@H](CC2CCCC2)C(=O)NC2CC2)s1: 2.32
23) O=C(N[C@@H](CC1CCCC1)C(=O)NC1CC1)c1ccc([C@@H]2CCc3c(Cl)cccc3N2)s1: 2.48
24) Cc1ncc(Cl)cc1N[C@H](C)c1ccc(C(=O)N[C@@H](CC2CCCC2)C(=O)NC23CC(C2)C3)s1: 2.17
25) CC[C@H](Nc1cc(Cl)cnc1C)c1ccc(C(=O)N[C@@H](CC2CCCC2)C(=O)N[C@H]2CC2(F)F)s1: 0.70
26) Cc1ncc(Cl)cc1N[C@@H](C)c1ccc(C(=O)N[C@@H](CC2CCCC2)C(=O)Nc2cnn(CC(F)(F)F)c2)s1: 0.78
27) Cc1ncc(Cl)cc1NC(Cn1cccn1)c1ccc(C(=O)N[C@@H](CC2CCCC2)C(=O)NC2CC2)s1 (stereo partly shown): 1.11
28) CCc1ncc(Cl)cc1N[C@H](C)c1ccc(C(=O)N[C@@H](CC2CCCC2)C(=O)NC2CC2)s1: 2.35
